- Tested on: H929 cells
- procedure_summary: Cell viability assay (H929 10 FBS)
- Format: cell-based
- test_conditions: Homo sapiens, NCI-H929, 24 hours, read-out: H929_10FBS IC50
pIC50: −log10 of the molar value.
quantity: pIC50

// solved cases for pIC50 follow
                                   molecule  quantity  result
0  CC1(C)OC/C=C/[C@H](OC(=O)N2CCN(CCO)CC2)[C@@H]2CC[C@H]2CN2C[C@@]3(CCCc4cc(Cl)ccc43)COc3ccc(cc32)S(=O)(=O)NC1=O     pIC50  > 6.30
1  CO[C@@H]1/C=C/CN(S(C)(=O)=O)[C@H](C)C(=O)NS(=O)(=O)c2ccc3c(c2)N(C[C@@H]2CC[C@H]21)C[C@@]1(CCCc2cc(Cl)ccc21)CO3     pIC50  < 6.00

Ask: API: value(readout=pIC50, system=H929 cells) for record `COC[C@H]1C(=O)NS(=O)(=O)c2ccc3c(c2)N(C[C@@H]2CC[C@H]2[C@H](OC)/C=C/C[C@@H]1C)C[C@@]1(CCCc2cc(Cl)ccc21)CO3`
Reply: > 6.00

====

IC50 by entry:
- Tested on: H929 cells
- procedure_summary: Cell viability assay (H929 10 FBS)
- Assay type: cell-based
- test_conditions: Homo sapiens, NCI-H929, 24 hours, read-out: H929_10FBS IC50

Ask: Which IC50 is reported for this molecule? COC1CN(C(=O)O[C@H]2/C=C/COC(C)(C)C(=O)NS(=O)(=O)c3ccc4c(c3)N(C[C@@H]3CC[C@H]32)C[C@@]2(CCCc3cc(Cl)ccc32)CO4)C1 [Example 56]
Reply: < 500 nM

====

- target_system: MCL-1 (Homo sapiens (Human))
- Sequence (Q07820 whole entry): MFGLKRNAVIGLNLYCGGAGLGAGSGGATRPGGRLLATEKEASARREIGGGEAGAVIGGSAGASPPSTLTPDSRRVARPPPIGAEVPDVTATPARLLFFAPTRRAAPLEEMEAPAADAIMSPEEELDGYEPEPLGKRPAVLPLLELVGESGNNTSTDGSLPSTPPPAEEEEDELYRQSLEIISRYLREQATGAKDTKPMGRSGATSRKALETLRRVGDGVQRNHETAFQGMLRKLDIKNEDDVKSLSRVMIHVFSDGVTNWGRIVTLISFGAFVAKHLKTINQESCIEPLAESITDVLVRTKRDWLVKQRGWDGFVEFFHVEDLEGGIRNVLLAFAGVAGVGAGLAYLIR
- procedure_summary: Cell free Mcl-1:Bim affinity assay (fluorescence polarization competition)
- Format: binding
- test_conditions: 15 nM MCL-1, 5 nM FITC-Bim, 1 hour at room temperature; class symbols; read-out: BIM_Ki
quantity: Ki

// solved cases for Ki follow
                                   molecule       result
0  CO[C@@H]1/C=C/CNC2(CCC2)C(=O)NS(=O)(=O)c2ccc3c(c2)N(C[C@@H]2CC[C@H]21)C[C@@]1(CCCc2cc(Cl)ccc21)CO3  1 to 100 nM
1  CC1(C)OC/C=C/[C@H](OCCN2CCCCC2)[C@@H]2CC[C@H]2CN2C[C@@]3(CCCc4cc(Cl)ccc43)COc3ccc(cc32)S(=O)(=O)NC1=O       < 1 nM
2  CO[C@@H]1/C=C/COC2(CC2)C(=O)NS(=O)(=O)c2ccc3c(c2)N(C[C@@H]2CC[C@H]21)C[C@@]1(CCCc2cc(Cl)ccc21)CO3       < 1 nM
3  CO[C@@H]1/C=C/C[C@H](C)[C@@H](C)C(=O)NS(=O)(=O)c2ccc3c(c2)N(C[C@@H]2CC[C@H]21)C[C@@]1(CCCc2cc(Cl)ccc21)CO3  1 to 100 nM

API: the following record is the query input.
Ask: Which Ki is reported for this molecule? `CN(C)C[C@@H]1CCCN1C(=O)O[C@H]1/C=C/COC(C)(C)C(=O)NS(=O)(=O)c2ccc3c(c2)N(C[C@@H]2CC[C@H]21)C[C@@]1(CCCc2cc(Cl)ccc21)CO3`
Reply: < 1 nM
